B1: SNX8 (parent)
chain: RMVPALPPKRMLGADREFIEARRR

Variants of: B1
Assay: protein stability index of a GFP-peptide fusion (GPS, HEK-293T) (PSI 1-6); higher = more stable;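 further: lentivirally expressed fusions sorted by FACS into six bins by GFP to DsRed ratio, PSI derived from sequencing read proportions per bin multiplied by bin number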
Details: c terminus: a fixed tail appended
observation_type: protein stability index

P8Y	3.88
A14F	3.37
R23W	1.28
L12R	4.19
D15L	1.52
R10K	3.81

**Query** Can you look up the measured protein stability index of `E17M` for me?
**Result** 2.38

**Query** // protein stability index lookup, key: `K9L`
**Result** 4.01

**Query** Give its protein stability index value. Item: `E17L`
**Result** 3.37

**Query** Tell me the measured protein stability index of `R10P` , please.
**Result** 4.44

**Query** Fill in: protein stability index of `G13F` is ___
**Result** 2.22

**Query** // lookup protein stability index for `G13H`
**Result** 3.37

**Query** Please report the recorded protein stability index for `D15N` .
**Result** 3.43

**Query** I am curious: what protein stability index value has been reported for `E20N` ?
**Result** 4.12

**Query** Could you tell me which protein stability index is on file for `A14E` ?
**Result** 4.34

**Query** GET /values?readout=protein stability index&item= `R1E`
**Result** 3.56

All values here come from the supplement of paper PMC10567573.
